Form field: Ki (one value per entry).
biological target: BRD4 (BDII_E352-M457) (Homo sapiens, UniProt O60885); construct: proliferation; Protocol; test: TR-FRET bromodomain binding assay, second bromodomain of BRD4; conditions: His-tagged BD2, 30 nM Alexa647 probe; TR-FRET protocol A-E given per row
Reported Metric: Ki (nM)

{"Chemical Smiles": "Cn1cc(-c2cc(NC(=O)Cc3ccc(Cl)cc3F)ccc2Oc2ccc(F)cc2F)c2cc[nH]c(=O)c21", "Reported Metric": "Ki", "Relation": ">", "Endpoint Result": 408}
{"Chemical Smiles": "Cn1cc(-c2cc(NC(=O)CCCOc3ccccc3)ccc2Oc2ccc(F)cc2F)c2cc[nH]c(=O)c21", "Reported Metric": "Ki", "Relation": "=", "Endpoint Result": 293}
{"Chemical Smiles": "Cn1cc(-c2cc(S(C)(=O)=O)ccc2NCC(F)(F)C(F)(F)C(F)(F)F)c2cc[nH]c(=O)c21", "Reported Metric": "Ki", "Relation": "=", "Endpoint Result": 1660}
{"Chemical Smiles": "CCOC(=O)c1cc2c(-c3cn(C)c4c(=O)[nH]ccc34)c(OCC3CC3)ccc2[nH]1", "Reported Metric": "Ki", "Relation": "=", "Endpoint Result": 2430}
{"Chemical Smiles": "Cn1cc(-c2cc(CS(=O)(=O)c3ccccc3)ccc2Oc2ccc(F)cc2F)c2cc[nH]c(=O)c21", "Reported Metric": "Ki", "Relation": "=", "Endpoint Result": 88}

====

molecular target: BRD4 (BDI_K57-E168) (Homo sapiens); construct: BD1: amino acids K57-E168; assay: TR-FRET bromodomain binding assay, first bromodomain of BRD4; details: His-tagged BD1, 100 nM Alexa647 probe; TR-FRET protocol A-E given per row
pKi: −log10 of the molar value.

{"Molecule": "Cn1cc(-c2cc(S(C)(=O)=O)ccc2Oc2ccc(F)cc2F)c2c(Cl)c[nH]c(=O)c21", "pKi": 7.03}
{"Molecule": "Cn1cc(-c2cc(NS(C)(=O)=O)ccc2Oc2ccc(F)cc2F)c2cc[nH]c(=O)c21", "pKi": 8.21}
{"Molecule": "Cn1cc(-c2cc(NCc3ccc(OCc4ccccc4)cc3)ccc2Oc2ccc(F)cc2F)c2cc[nH]c(=O)c21", "pKi": 6.67}
{"Molecule": "Cn1cc(-c2cc(NCc3ccccc3C#N)ccc2Oc2ccc(F)cc2F)c2cc[nH]c(=O)c21", "pKi": 7.51}
{"Molecule": "Cn1cc(-c2cc(CS(C)(=O)=O)ccc2Nc2ccc(F)cc2)c2cc[nH]c(=O)c21", "pKi": 7.92}
{"Molecule": "Cn1cc(-c2cc(NS(C)(=O)=O)c(F)cc2Oc2ccc(F)cc2F)c2cc[nH]c(=O)c21", "pKi": 8.05}
{"Molecule": "Cn1ccc2c(-c3cc(S(C)(=O)=O)ccc3OCC3CC3(F)F)cn(C)c2c1=O (centres unmarked)", "pKi": 5.59}
{"Molecule": "Cn1cc(-c2cc(CS(C)(=O)=O)ccc2Oc2ccc(F)cc2F)c2cc[nH]c(=O)c21", "pKi": 8.34}
{"Molecule": "Cn1cc(-c2cc(CS(=O)(=O)NC3CCCCC3)ccc2Oc2ccc(F)cc2F)c2cc[nH]c(=O)c21", "pKi": 7.02}
{"Molecule": "CCS(=O)(=O)Nc1ccc(OC2CCC(F)(F)CC2)c(-c2cn(C)c3c(=O)[nH]ccc23)c1", "pKi": 8.80}
{"Molecule": "Cn1cc(-c2cc(NC(=O)c3ccccn3)ccc2Oc2ccc(F)cc2F)c2cc[nH]c(=O)c21", "pKi": 7.66}
{"Molecule": "Cn1cc(-c2cc(S(C)(=O)=O)ccc2Oc2ccc(F)c(F)c2)c2cc[nH]c(=O)c21", "pKi": 7.80}
{"Molecule": "CCS(=O)(=O)Nc1ccc(Oc2ccc(F)cc2F)c(-c2cn(C)c3c(=O)[nH]c(C(=O)NC)cc23)c1", "pKi": 8.49}
{"Molecule": "Cn1cc(-c2cc(NCCC(C)(C)C)ccc2Oc2ccc(F)cc2F)c2cc[nH]c(=O)c21", "pKi": 7.24}
{"Molecule": "Cn1cc(-c2cc(S(C)(=O)=O)ccc2NCCC2CCCC2)c2cc[nH]c(=O)c21", "pKi": 6.31}
{"Molecule": "Cn1cc(-c2ccccc2NCC2CC2)c2cc[nH]c(=O)c21", "pKi": 6.06}
{"Molecule": "COc1ccccc1CC(=O)Nc1ccc(Oc2ccc(F)cc2F)c(-c2cn(C)c3c(=O)[nH]ccc23)c1", "pKi": 7.38}
{"Molecule": "CCS(=O)(=O)c1ccc(Oc2ccc(Cl)c(Cl)c2)c(-c2cn(C)c3c(=O)[nH]ccc23)c1", "pKi": 7.11}
{"Molecule": "Cc1oncc1S(=O)(=O)NCc1ccc(Oc2ccc(F)cc2F)c(-c2cn(C)c3c(=O)[nH]ccc23)c1", "pKi": 6.89}
{"Molecule": "CCS(=O)(=O)Nc1ccc(Oc2ccc(F)cc2F)c(-c2cn(C)c3c(=O)[nH]c(C(=O)N4CCOCC4)cc23)c1", "pKi": 8.12}
